System: E. coli MP-4
Assay: MIC determination by CLSI broth dilution, E. coli MP-4
Assay type: cell-based
Settings: Escherichia coli, MP4, CLSI broth dilution; strain MP-4
What MIC was measured for each of the following?

Use these answered entries as a reference point.
| compound | MIC |
| --- | --- |
| CCN1C[C@H](C)C[C@@](C)(OC)[C@H](O[C@@H]2O[C@H](C)C[C@H](N(C)C)[C@H]2O)[C@@H](C)C(=O)C(C)(C)C(=O)OC[C@H]1[C@H](O)CCN(C)Cc1ccccc1 [Compound 194] | < 4 µg/mL |
| CCCCCCCN1CCC(C[C@@H]2COC(=O)[C@@](C)(CCC)C(=O)[C@H](C)[C@@H](O[C@@H]3O[C@H](C)C[C@H](N(C)C)[C@H]3O)[C@](C)(OC)C[C@@H](C)CN2C)CC1 [Compound 174] | < 4 µg/mL |

Next, consider the following compound.
Give its MIC value. Item: CO[C@]1(C)C[C@@H](C)CN(C)[C@H](CC2CCN(C)CC2)[C@@H](C)OC(=O)C(C)(C)C(=O)[C@H](C)[C@H]1O[C@@H]1O[C@H](C)C[C@H](N(C)C)[C@H]1O [Compound 49]
< 4 µg/mL

---

Tested on: E. coli MP-4
Assay: MIC determination by CLSI broth dilution, E. coli MP-4
Assay type: cell-based
Conditions: Escherichia coli, MP4, CLSI broth dilution; strain MP-4
Would you mind telling me the reported MIC of each entry?

Please review the following examples before continuing.
| compound | MIC |
| --- | --- |
| CO[C@]1(C)C[C@@H](C)CN(C)[C@@H](CCCN2CCC[C@@H]2C)COC(=O)C(C)(C)C(=O)[C@H](C)[C@H]1O[C@@H]1O[C@H](C)C[C@H](N(C)C)[C@H]1O | < 4 µg/mL |
| CCCCCCCN1CCC(C[C@@H]2COC(=O)[C@@](C)(COC)C(=O)[C@H](C)[C@@H](O[C@@H]3O[C@H](C)C[C@H](N(C)C)[C@H]3O)[C@](C)(OC)C[C@@H](C)CN2C)CC1 | < 4 µg/mL |
| CNC[C@H]1COC(=O)C(C)(C)C(=O)[C@H](C)[C@@H](O[C@@H]2O[C@H](C)C[C@H](N(C)C)[C@H]2O)[C@](C)(OC)C[C@@H](C)CN1C | 4 to 32 µg/mL |
| CO[C@]1(C)C[C@@H](C)CN(C)[C@@H](CCCN2CCC(C)(C)CC2)COC(=O)C(C)(C)C(=O)[C@H](C)[C@H]1O[C@@H]1O[C@H](C)C[C@H](N(C)C)[C@H]1O | < 4 µg/mL |
| CC[C@@H]1COC(=O)[C@H](C)C(=O)[C@H](C)[C@@H](OC2OC(C)CC(N(C)C)C2O)[C@](C)(OC)C[C@@H](C)CN1 (some centres unmarked) | > 32 µg/mL |

Each compound below has a recorded value; state its MIC.
1. CCN1C[C@H](C)C[C@@](C)(OC)[C@H](O[C@@H]2O[C@H](C)C[C@H](N(C)C)[C@H]2O)[C@@H](C)C(=O)C(C)(C)C(=O)OC[C@H]1CC1CCN(CCOC)CC1
2. CO[C@]1(C)C[C@@H](C)CN(C)[C@H](CC2CN(CC(C)C)C2)COC(=O)C(C)(C)C(=O)[C@H](C)[C@H]1O[C@@H]1O[C@H](C)C[C@H](N(C)C)[C@H]1O
3. CCN1C[C@H](C)C[C@@](C)(OC)[C@H](O[C@@H]2O[C@H](C)C[C@H](N(C)C)[C@H]2O)[C@@H](C)C(=O)C(C)(C)C(=O)OC[C@H]1[C@H](O)CCO
4. CO[C@]1(C)C[C@@H](C)CN(C)[C@@H](CN2CCN(C(C)C)CC2)COC(=O)C(C)(C)C(=O)[C@H](C)[C@H]1O[C@@H]1O[C@H](C)C[C@H](N(C)C)[C@H]1O
5. CO[C@]1(C)C[C@@H](C)CN(C)[C@H](CC2CCN(C3CC3)CC2)COC(=O)C(C)(C)C(=O)[C@H](C)[C@H]1O[C@@H]1O[C@H](C)C[C@H](N(C)C)[C@H]1O
6. CCN1C[C@H](C)C[C@@](C)(OC)[C@H](O[C@@H]2O[C@H](C)C[C@H](N(C)C)[C@H]2O)[C@@H](C)C(=O)C(C)(C)C(=O)OC[C@H]1CC1CCN(CCO)CC1
7. CCCN1C[C@H](C)C[C@@](C)(OC)[C@H](O[C@@H]2O[C@H](C)C[C@H](N(C)C)[C@H]2O)[C@@H](C)C(=O)C(C)(C)C(=O)OC[C@H]1CCCN(C)C
8. CCCN1CCC(C[C@@H]2[C@@H](C)OC(=O)C(C)(C)C(=O)[C@H](C)[C@@H](O[C@@H]3O[C@H](C)C[C@H](N(C)C)[C@H]3O)[C@](C)(OC)C[C@@H](C)CN2C)CC1

< 4 µg/mL
> 32 µg/mL
4 to 32 µg/mL
< 4 µg/mL
< 4 µg/mL
< 4 µg/mL
< 4 µg/mL
< 4 µg/mL

---

Kindly supply the reported MIC values for the records listed here.
Test system: E. coli MP-4
Experiment: MIC determination by CLSI broth dilution, E. coli MP-4
Type: cell-based
Details: Escherichia coli, MP4, CLSI broth dilution; strain MP-4

| molecule | studyTarget | readoutValue |
| --- | --- | --- |
| CCCCCCCN1CCC(C[C@@H]2COC(=O)C(C)(C)C(=O)[C@H](C)[C@@H](O[C@@H]3O[C@H](C)C[C@H](N(C)C)[C@H]3O)[C@](C)(OC)C[C@@H](C)CN2C)CC1 [Compound 56] | E. coli MP-4 | < 4 µg/mL |
| C=C[C@@H]1COC(=O)C(C)(C)C(=O)[C@H](C)[C@@H](O[C@@H]2O[C@H](C)C[C@H](N(C)C)[C@H]2O)[C@](C)(OC)C[C@@H](C)CN1C [Compound 14] | E. coli MP-4 | 4 to 32 µg/mL |
| COC(CN1CCC(C[C@@H]2COC(=O)C(C)(C)C(=O)[C@H](C)[C@@H](O[C@@H]3O[C@H](C)C[C@H](N(C)C)[C@H]3O)[C@](C)(OC)C[C@@H](C)CN2C)CC1)OC [Compound 65] | E. coli MP-4 | < 4 µg/mL |
| CCCN1CCC(CC[C@@H]2COC(=O)C(C)(C)C(=O)[C@H](C)[C@@H](O[C@@H]3O[C@H](C)C[C@H](N(C)C)[C@H]3O)[C@](C)(OC)C[C@@H](C)CN2C)CC1 [Compound 75] | E. coli MP-4 | 4 to 32 µg/mL |

Find the recorded MIC belonging to CCCN1C[C@H](C)C[C@@](C)(OC)[C@H](O[C@@H]2O[C@H](C)C[C@H](N(C)C)[C@H]2O)[C@@H](C)C(=O)C(C)(C)C(=O)OC[C@H]1CCCN1Cc2ccccc2C1 [Compound 145] and report it.
< 4 µg/mL

---

Assign MIC to each entry below.
Test system: K. pneumoniae MP-648
Assay: MIC determination by CLSI broth dilution, K. pneumoniae MP-648
Assay type: cell-based
Settings: Klebsiella pneumoniae, MP648, CLSI broth dilution; strain MP-648

| compound | readoutValue |
| --- | --- |
| CO[C@]1(C)C[C@@H](C)CN(C)[C@@H](CCCN2CCC[C@@H]2C(F)(F)F)COC(=O)C(C)(C)C(=O)[C@H](C)[C@H]1O[C@@H]1O[C@H](C)C[C@H](N(C)C)[C@H]1O [Compound 123] | > 32 µg/mL |
| C=C(C[C@@H]1COC(=O)C(C)(C)C(=O)[C@H](C)[C@@H](O[C@@H]2O[C@H](C)C[C@H](N(C)C)[C@H]2O)[C@](C)(OC)C[C@@H](C)CN1C)CN(CCC)CCC [Compound 2] | > 32 µg/mL |
| CO[C@H](CCN1CCCC1)[C@@H]1COC(=O)C(C)(C)C(=O)[C@H](C)[C@@H](O[C@@H]2O[C@H](C)C[C@H](N(C)C)[C@H]2O)[C@](C)(OC)C[C@@H](C)CN1C [Compound 77] | < 4 µg/mL |
| CCN1CCN(C[C@H]2COC(=O)C(C)(C)C(=O)[C@H](C)[C@@H](O[C@@H]3O[C@H](C)C[C@H](N(C)C)[C@H]3O)[C@](C)(OC)C[C@@H](C)CN2C)CC1 [Compound 155] | 4 to 32 µg/mL |
| CCC(CC)CN1CCC(C[C@@H]2COC(=O)C(C)(C)C(=O)[C@H](C)[C@@H](O[C@@H]3O[C@H](C)C[C@H](N(C)C)[C@H]3O)[C@](C)(OC)C[C@@H](C)CN2C)CC1 [Compound 58] | < 4 µg/mL |
| CCCN1C[C@H](C)C[C@@](C)(OC)[C@H](O[C@@H]2O[C@H](C)C[C@H](N(C)C)[C@H]2O)[C@@H](C)C(=O)C(C)(C)C(=O)OC[C@H]1CCCN1Cc2ccccc2C1 [Compound 145] | < 4 µg/mL |
| CCN1C[C@H](C)C[C@@](C)(OC)[C@H](O[C@@H]2O[C@H](C)C[C@H](N(C)C)[C@H]2O)[C@@H](C)C(=O)C(C)(C)C(=O)OC[C@@H]1CCCN1CCCCC1 [Compound 129] | < 4 µg/mL |
| CCN1C[C@H](C)C[C@@](C)(OC)[C@H](O[C@@H]2O[C@H](C)C[C@H](N(C)C)[C@H]2O)[C@@H](C)C(=O)C(C)(C)C(=O)OC[C@@H]1CN1CCN(C(C)C)CC1 [Compound 159] | 4 to 32 µg/mL |
| CCCN1C[C@H](C)C[C@@](C)(OC)[C@H](O[C@@H]2O[C@H](C)C[C@H](N(C)C)[C@H]2O)[C@@H](C)C(=O)C(C)(C)C(=O)OC[C@H]1CCCN(C)C [Compound 21] | < 4 µg/mL |
| CCN1C[C@H](C)C[C@@](C)(OC)[C@H](O[C@@H]2O[C@H](C)C[C@H](N(C)C)[C@H]2O)[C@@H](C)C(=O)C(C)(C)C(=O)OC[C@H]1CC1CCN(C)CC1 [Compound 98] | < 4 µg/mL |

// for each compound in input: emit MIC
1. CO[C@]1(C)C[C@@H](C)CN(C)[C@H](CCCN2CCCC2)COC(=O)C(C)(C)C(=O)[C@H](C)[C@H]1O[C@@H]1O[C@H](C)C[C@H](N(C)C)[C@H]1O [Compound 161]
2. CCN1CCC(C[C@@H]2COC(=O)C(C)(C)C(=O)[C@H](C)[C@@H](O[C@@H]3O[C@H](C)C[C@H](N(C)C)[C@H]3O)[C@](C)(OC)C[C@@H](C)CN2CC)CC1 [Compound 118]

1: < 4 µg/mL; 2: < 4 µg/mL

Would you be so kind as to report MIC for each listed record?
1. CO[C@]1(C)C[C@@H](C)CN(C)[C@H](/C=C/CN2Cc3cccnc3C2)COC(=O)C(C)(C)C(=O)[C@H](C)[C@H]1O[C@@H]1O[C@H](C)C[C@H](N(C)C)[C@H]1O [Compound 152]
2. CCCN(CCC)CC[C@@H](O)[C@@H]1COC(=O)C(C)(C)C(=O)[C@H](C)[C@@H](O[C@@H]2O[C@H](C)C[C@H](N(C)C)[C@H]2O)[C@](C)(OC)C[C@@H](C)CN1CC [Compound 223]
3. CN[C@H]1C[C@H](C[C@]2(C)COC(=O)C(C)(C)C(=O)[C@H](C)[C@@H](O[C@@H]3O[C@H](C)C[C@H](N(C)C)[C@H]3O)[C@](C)(OC)C[C@@H](C)CN2C)C1 [Compound 199]
4. CCCN1CCC([C@@H](O)[C@H]2COC(=O)C(C)(C)C(=O)[C@H](C)[C@@H](O[C@@H]3O[C@H](C)C[C@H](N(C)C)[C@H]3O)[C@](C)(OC)C[C@@H](C)CN2C)CC1 [Compound 24]
5. CO[C@]1(C)C[C@@H](C)CN(C)[C@@H](CCCN2CCC(F)CC2)COC(=O)C(C)(C)C(=O)[C@H](C)[C@H]1O[C@@H]1O[C@H](C)C[C@H](N(C)C)[C@H]1O [Compound 103]
6. CO[C@]1(C)C[C@@H](C)CN(C)[C@H](C[C@H]2C[C@H](N(C)CC3CC3)C2)COC(=O)C(C)(C)C(=O)[C@H](C)[C@H]1O[C@@H]1O[C@H](C)C[C@H](N(C)C)[C@H]1O [Compound 138]

1: 4 to 32 µg/mL; 2: 4 to 32 µg/mL; 3: > 32 µg/mL; 4: > 32 µg/mL; 5: < 4 µg/mL; 6: < 4 µg/mL

Fill in the blank: the reported MIC of CO[C@]1(C)C[C@@H](C)CN(C)[C@H](CC2CCN(Cc3ccncc3)CC2)COC(=O)C(C)(C)C(=O)[C@H](C)[C@H]1O[C@@H]1O[C@H](C)C[C@H](N(C)C)[C@H]1O [Compound 61] is ____.
4 to 32 µg/mL

Where do these numbers come from? They come from patent US12552825B2.
